- tested.target: human type 1 glycine transporter (GlyT1) (Homo sapiens, UniProt P48067)
- Construct: T98G cells (glioma cells) expressing human type 1 glycine transporter (GlyT1) were used; endogenous in cells; host or cells: T98G cells (human glioma cells)
- assay.info: Glycine uptake inhibition experiment ([3H] glycine uptake in T98G cells expressing GlyT1)
- Assay type: cell-based
- run.conditions: glycine uptake inhibition
parameter.measured: IC50

INSERT INTO assay_data (molecule, parameter_measured, measurement) VALUES
  ('C[C@H](O)c1cccc2c1C(F)(F)C(=O)N2Cc1n[nH]c2ccccc12 [Compound 89]', 'IC50', '190 nM');

Input line: So what IC50 did O=C1N(Cc2cccc(Cl)n2)c2cccc(C(O)C(F)(F)F)c2C1(F)F (stereo not shown) [Compound 2] get with human type 1 glycine transporter (GlyT1) (Homo sapiens, UniProt P48067)?
Output line: 51 nM

Input line: So what IC50 did O=C1N(Cc2ccnc(Cl)c2)c2cccc(C(O)C(F)F)c2C1(F)F (single isomer, unassigned) [Compound 36] get with human type 1 glycine transporter (GlyT1) (Homo sapiens, UniProt P48067)?
Output line: 13 nM

Input line: So what IC50 did C[C@H](O)c1cccc2c1C(F)(F)C(=O)N2Cc1ccnc(C(F)F)c1 [Compound 117] get with human type 1 glycine transporter (GlyT1) (Homo sapiens, UniProt P48067)?
Output line: 31 nM
